measurement-description: solvent given as SMILES
condition-notes: in ClC(Cl)C(Cl)Cl
quantity-kind: solvation free energy, 298 K (kcal/mol)
The reply should contain only the number, in kcal/mol.

# query: solvation free energy, 298 K of entry "CCCCCC"
-3.35

Query: solvation free energy, 298 K; subject: "CCI"
-4.41

Request the reported solvation free energy, 298 K associated with "CCCCC"
-2.77

I would be grateful if you could share the reported solvation free energy, 298 K for "CC=C(C)C" .
-3.16

---

// solvation free energy, 298 K lookup, one value per entry
measurement-description: solvent given as SMILES
condition-notes: in ClCCCl
Give the quantity in kcal/mol, number only.

1. CCCCCCCCC | -5.32

Would you mind telling me what solvation free energy, 298 K value was observed for "c1ccc2ccccc2c1" ?
-8.02

Which measured solvation free energy, 298 K value corresponds to "CC(C)C(C)C(C)C" ?
-4.4

Value source: the CombiSolv-Exp solvation set (Vermeire and Green 2021)
